studyTarget: human cannabinoid CB2 receptor (Homo sapiens, UniProt P34972)
Sequence (P34972 whole entry): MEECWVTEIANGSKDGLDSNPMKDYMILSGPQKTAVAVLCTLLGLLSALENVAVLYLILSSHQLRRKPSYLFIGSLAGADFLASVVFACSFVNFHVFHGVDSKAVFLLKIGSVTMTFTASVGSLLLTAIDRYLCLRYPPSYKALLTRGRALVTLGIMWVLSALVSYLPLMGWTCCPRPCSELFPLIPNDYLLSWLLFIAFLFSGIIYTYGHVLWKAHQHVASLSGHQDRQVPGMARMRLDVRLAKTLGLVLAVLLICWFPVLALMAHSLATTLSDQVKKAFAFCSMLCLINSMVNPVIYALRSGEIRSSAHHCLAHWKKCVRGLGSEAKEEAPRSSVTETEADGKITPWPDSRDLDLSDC
experimentalDetails: Cannabinoid CB2 receptor agonist activity (yeast reporter assay, FDGlu fluorescence)
Type: cell-based
studyConditions: read-out: efficacy value (Emax relative to HU210) at the cloned human cannabinoid CB2 receptor
readoutName: Emax

What value of Emax has been recorded for this entry: CC(C)c1cc(Nc2ccc(C#N)cc2F)ncc1C(=O)NCC1CCCC1
> 50%

What value of Emax has been recorded for this entry: Cc1ccc(Cl)c(Nc2ncc(C(=O)NCC3CCOCC3)c(C(F)(F)F)n2)c1
> 50%

What value of Emax has been recorded for this entry: N#Cc1cc(C#N)cc(Nc2ncc(C(=O)NCC3CCCCC3)c(C(F)(F)F)n2)c1
> 50%

What value of Emax has been recorded for this entry: N#Cc1cccc(Nc2ncc(C(=O)NCC3CCCCC3)c(C(F)(F)F)n2)c1
> 50%

What value of Emax has been recorded for this entry: O=C(NCC1CCOCC1)c1cnc(Nc2cc(C(F)(F)F)cc(C(F)(F)F)c2)nc1C(F)(F)F
> 50%

What value of Emax has been recorded for this entry: O=C(NCC1CCC1)c1cnc(Nc2ccc(Br)cc2F)nc1C(F)(F)F
> 50%

----------
studyTarget: human cannabinoid CB2 receptor (Homo sapiens)
experimentalDetails: Cannabinoid CB2 receptor agonist activity (yeast reporter assay, FDGlu fluorescence)
Assay type: cell-based
studyConditions: read-out: efficacy value (Emax relative to HU210) at the cloned human cannabinoid CB2 receptor
So I've got a bunch of compounds here, and I need their Emax values.

What value of Emax has been recorded for this entry: O=C(NCC1CCC1)c1cnc(Nc2ccc(Br)cc2Cl)nc1C(F)(F)F [Example 227]
> 50%

What value of Emax has been recorded for this entry: O=C(NCC1CCOCC1)c1cnc(Nc2ccc(C(F)(F)F)c(F)c2)nc1C(F)(F)F [Example 218]
> 50%

What value of Emax has been recorded for this entry: CC(C)(C)CCNC(=O)c1cnc(Nc2cccc(Cl)c2)nc1C(F)(F)F [Example 27]
> 50%

What value of Emax has been recorded for this entry: O=C(NCC1CCCCC1)c1cnc(Nc2ccc(Br)cc2F)nc1C(F)(F)F [Example 231]
> 50%

What value of Emax has been recorded for this entry: O=C(c1cnc(Nc2cc(Cl)cc(Cl)c2)nc1C(F)(F)F)N1CCOCC1 [Example 13]
> 50%

What value of Emax has been recorded for this entry: CS(=O)(=O)N1CCN(C(=O)c2cnc(Nc3cccc(Cl)c3)nc2C(F)(F)F)CC1 [Example 79]
> 50%

What value of Emax has been recorded for this entry: O=C(NCC1CCOCC1)c1cnc(Nc2ccc(Br)cc2Cl)nc1C(F)(F)F [Example 234]
> 50%

What value of Emax has been recorded for this entry: O=C(NCC1CCOCC1)c1cnc(Nc2cccc(C(F)(F)F)c2F)nc1C(F)(F)F [Example 181]
> 50%

----------
So I've got a bunch of molecules here, and I need their pEC50 values.
studyTarget: human cannabinoid CB2 receptor (Homo sapiens)
experimentalDetails: Cannabinoid CB2 receptor agonist activity (yeast reporter assay, FDGlu fluorescence)
Type: cell-based
studyConditions: EC50 value at the cloned human cannabinoid CB2 receptor
pEC50: −log10 of the molar value.

Find the measured pEC50: item N#Cc1cccc(Nc2ncc(C(=O)NCC3CCOCC3)c(C(F)(F)F)n2)c1 , target or system human cannabinoid CB2 receptor (Homo sapiens).
6.52 to 7.70

Find the measured pEC50: item O=C(NCc1ccccc1)c1cnc(Nc2ccc(Cl)c(Cl)c2)nc1C(F)(F)F , target or system human cannabinoid CB2 receptor (Homo sapiens).
6.52 to 7.70

Find the measured pEC50: item Cc1cc(Cl)cc(C)c1Nc1ncc(C(=O)NCC2CCCCC2)c(C(F)(F)F)n1 , target or system human cannabinoid CB2 receptor (Homo sapiens).
6.00 to 6.52

Find the measured pEC50: item N#Cc1ccc(CNC(=O)c2cnc(Nc3cccc(Cl)c3)nc2C(F)(F)F)cc1 , target or system human cannabinoid CB2 receptor (Homo sapiens).
6.52 to 7.70

Find the measured pEC50: item O=C(NCC1CCC1)c1cnc(Nc2cccc(Br)c2)nc1C(F)(F)F , target or system human cannabinoid CB2 receptor (Homo sapiens).
6.52 to 7.70

Find the measured pEC50: item N#Cc1ccc(Nc2ncc(C(=O)NCC3CCOCC3)c(C(F)(F)F)n2)cc1 , target or system human cannabinoid CB2 receptor (Homo sapiens).
6.52 to 7.70

Find the measured pEC50: item O=C(NCC1CCOCC1)c1cnc(Nc2cccc(Cl)c2Cl)nc1C(F)(F)F , target or system human cannabinoid CB2 receptor (Homo sapiens).
6.52 to 7.70

Find the measured pEC50: item Cc1c(Cl)cccc1Nc1ncc(C(=O)NCC2CCCCC2)c(C(F)(F)F)n1 , target or system human cannabinoid CB2 receptor (Homo sapiens).
6.00 to 6.52

----------
studyTarget: human cannabinoid CB2 receptor (Homo sapiens, UniProt P34972)
experimentalDetails: Cannabinoid CB2 receptor agonist activity (yeast reporter assay, FDGlu fluorescence)
Assay type: cell-based
studyConditions: EC50 value at the cloned human cannabinoid CB2 receptor
pEC50: −log10 of the molar value. Where a name gives a salt, the structure may show the parent alone.
readoutName: pEC50

What value of pEC50 has been recorded for this entry: COc1ccccc1Nc1ncc(C(=O)NCc2ccccc2)c(C(F)(F)F)n1
6.52 to 7.70

What value of pEC50 has been recorded for this entry: O=C(NC1CCCC1)c1cnc(Nc2cccc(Cl)c2)nc1C(F)(F)F
6.52 to 7.70

What value of pEC50 has been recorded for this entry: O=C(NCC1CCCCC1)c1cnc(Nc2cccc(Cl)c2Cl)nc1C(F)(F)F
6.52 to 7.70

What value of pEC50 has been recorded for this entry: O=C(NC1CCC1)c1cnc(Nc2cccc(Cl)c2Cl)nc1C(F)(F)F
6.52 to 7.70

What value of pEC50 has been recorded for this entry: N#Cc1cccc(Nc2ncc(C(=O)NCC3CCCC3)c(C(F)(F)F)n2)c1
6.52 to 7.70

What value of pEC50 has been recorded for this entry: O=C(NCC1CCCCC1)c1cnc(Nc2cc(Cl)ccc2F)nc1C(F)(F)F
6.52 to 7.70

What value of pEC50 has been recorded for this entry: O=C(NCC1CCOCC1)c1cnc(Nc2cc(C(F)(F)F)cc(C(F)(F)F)c2)nc1C(F)(F)F
6.52 to 7.70

What value of pEC50 has been recorded for this entry: O=C(NCc1ccc(F)cc1)c1cnc(Nc2cc(F)cc(F)c2)nc1C(F)(F)F
6.52 to 7.70

What value of pEC50 has been recorded for this entry: O=C(NC1CCC1)c1cnc(Nc2cc(Cl)cc(Cl)c2)nc1C(F)(F)F
6.52 to 7.70

What value of pEC50 has been recorded for this entry: O=C(NC1CCCC1)c1cnc(Nc2cc(Cl)cc(Cl)c2)nc1C(F)(F)F
6.00 to 6.52

What value of pEC50 has been recorded for this entry: O=C(NCc1ccnc(F)c1)c1cnc(Nc2cccc(Cl)c2)nc1C(F)(F)F
6.52 to 7.70

What value of pEC50 has been recorded for this entry: O=C(c1cnc(Nc2cccc(F)c2)nc1C(F)(F)F)N1CCCCC1
6.00 to 6.52

What value of pEC50 has been recorded for this entry: O=C(NCC1CCOCC1)c1cnc(Nc2ccc(Cl)cc2Br)nc1C(F)(F)F
6.52 to 7.70

What value of pEC50 has been recorded for this entry: COc1cccc(Nc2ncc(C(=O)NCC3CCCC3)c(C(F)(F)F)n2)c1
6.52 to 7.70

What value of pEC50 has been recorded for this entry: Cc1cc(CNC(=O)c2cnc(Nc3cccc(Br)c3)nc2C(F)(F)F)ccn1
6.00 to 6.52

What value of pEC50 has been recorded for this entry: O=C(NCC1CCOCC1)c1cnc(Nc2ccc(Br)cc2Cl)nc1C(F)(F)F
6.52 to 7.70

What value of pEC50 has been recorded for this entry: COc1cccc(Nc2ncc(C(=O)N(C)Cc3ccccc3)c(C(F)(F)F)n2)c1
6.00 to 6.52

What value of pEC50 has been recorded for this entry: Cc1cc(CNC(=O)c2cnc(Nc3cccc(Cl)c3)nc2C(F)(F)F)ccn1 [Example 303]
6.00 to 6.52

What value of pEC50 has been recorded for this entry: Cc1ccc(Cl)c(Nc2ncc(C(=O)NCC3CCOCC3)c(C(F)(F)F)n2)c1
6.00 to 6.52

What value of pEC50 has been recorded for this entry: Cc1cc(Cl)ccc1Nc1ncc(C(=O)NCC2CCC2)c(C(F)(F)F)n1
6.52 to 7.70

What value of pEC50 has been recorded for this entry: O=C(NCC1CCC1)c1cnc(Nc2cc(Cl)ccc2F)nc1C(F)(F)F
6.52 to 7.70

What value of pEC50 has been recorded for this entry: O=C(NC1CCC1)c1cnc(Nc2cc(Cl)ccc2Cl)nc1C(F)(F)F
6.52 to 7.70

What value of pEC50 has been recorded for this entry: CC(C)c1cc(Nc2ccc(Br)c(C(F)(F)F)c2)ncc1C(=O)NCC1CCOCC1
6.00 to 6.52

What value of pEC50 has been recorded for this entry: O=C(c1cnc(Nc2cc(Cl)ccc2Cl)nc1C(F)(F)F)N1CCCCC1
6.00 to 6.52

What value of pEC50 has been recorded for this entry: O=C(NCC1CC1)c1cnc(Nc2cccc(F)c2)nc1C(F)(F)F
6.00 to 6.52

What value of pEC50 has been recorded for this entry: O=C(c1cnc(Nc2ccccc2)nc1C(F)(F)F)N1CCCCC1
6.00 to 6.52

What value of pEC50 has been recorded for this entry: Cc1cc(CNC(=O)c2cnc(Nc3cccc(Cl)c3)nc2C(F)(F)F)ccn1 [Example 293, hydrochloride]
6.52 to 7.70

What value of pEC50 has been recorded for this entry: O=C(NC1CCC1)c1cnc(Nc2ccc(Cl)c(Cl)c2)nc1C(F)(F)F
6.00 to 6.52

What value of pEC50 has been recorded for this entry: O=C(NCC1CCOCC1)c1cnc(Nc2cc(Cl)ccc2Cl)nc1C(F)(F)F
6.52 to 7.70

What value of pEC50 has been recorded for this entry: O=C(NCc1ccncc1)c1cnc(Nc2cc(Cl)ccc2Cl)nc1C(F)(F)F
6.52 to 7.70

What value of pEC50 has been recorded for this entry: O=C(NCC1CCCC1)c1cnc(Nc2cccc(Cl)c2F)nc1C(F)(F)F
6.52 to 7.70

What value of pEC50 has been recorded for this entry: O=C(NCC1CCOCC1)c1cnc(Nc2cc(F)cc(C(F)(F)F)c2)nc1C(F)(F)F
6.52 to 7.70

What value of pEC50 has been recorded for this entry: CN(Cc1ccccc1)C(=O)c1cnc(Nc2ccccc2Cl)nc1C(F)(F)F
6.00 to 6.52

What value of pEC50 has been recorded for this entry: O=C(NC1CCS(=O)(=O)CC1)c1cnc(Nc2cccc(Cl)c2Cl)nc1C(F)(F)F
6.00 to 6.52

What value of pEC50 has been recorded for this entry: O=C(NCC1CCCCC1)c1cnc(Nc2ccc(Br)cc2F)nc1C(F)(F)F
6.52 to 7.70
